The values you see were collected from patent US20170306005A1.

Target: T1, human Fc-His-FBG (human, UniProt P24821 1974-2201)
T1 sequence: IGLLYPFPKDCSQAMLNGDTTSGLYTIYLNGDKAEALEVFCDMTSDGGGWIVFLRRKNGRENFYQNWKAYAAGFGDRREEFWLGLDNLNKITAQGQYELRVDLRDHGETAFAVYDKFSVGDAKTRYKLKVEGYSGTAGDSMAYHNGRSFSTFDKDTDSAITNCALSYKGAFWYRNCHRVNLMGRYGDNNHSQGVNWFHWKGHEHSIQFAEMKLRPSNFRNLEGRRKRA
Experiment: cell-based or functional assay
property-measured: IC50, inhibition of Fc-His-HuFBG-evoked IL-8 release, THP1-Blue cells (nM)
Give the number; nM is assumed, so skip it.

Some solved cases for reference:
binder	experimental-result
Fab F3 (Fab, V domains shown, monomeric Fab) VH: EVQLLESGGGLVQPGGSLRLSCAASGFTFSSYGMHWVRQAPGKGLEWVAVISYDGSNKYYADSVKGRFTISRGNSKNTLYLQMNSLKAEDTAVYYCAREGYDQLFSAESNAFDIWGQGTLVTVSS VL: NFMLAQPHSVSESPGKTVTISCTRSSGSIASYFVQWFQQRPGSAPTAVIYEDNQRPSGVPDRFSGSIDSSSNSASLTISGLKTEDEADYYCQSYDSSNWVFGGGTKVTVLG	13.8
Fab 2A5 (Fab, V domains shown, monomeric Fab) VH: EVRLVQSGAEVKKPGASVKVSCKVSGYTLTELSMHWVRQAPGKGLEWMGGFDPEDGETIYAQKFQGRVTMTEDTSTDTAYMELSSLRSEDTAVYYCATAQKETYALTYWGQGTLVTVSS VL: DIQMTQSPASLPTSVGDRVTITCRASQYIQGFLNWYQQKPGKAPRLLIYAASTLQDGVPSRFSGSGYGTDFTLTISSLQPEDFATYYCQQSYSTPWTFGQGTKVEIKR	28.5

Let us examine a further case.
State, in one line, measured IC50, inhibition of Fc-His-HuFBG-evoked IL-8 release, THP1-Blue cells of Fab D8 (Fab, V domains shown, monomeric Fab) VH: EVQLVQSGAEVKKPGASVKVSCKASGYTFTSYGISWVRQAPGQGLEWMGWISAYNGNTNYAQKLQGRVTMTTDTSTSTAYMELRSLRSDDTAVYYCARNQDSSSDYWGQGTLVTVSS VL: DIQMTQSPASLPTSVGDRVTITCRASQYIQGFLNWYQQKPGKAPKLLIYDASNLETGVPSRFSGSGSGTDFTLTISSLQPEDFATYYCQQSYSTLQTFGQGTKVDIKR
14.9
